Data provenance: PubChem BioAssay (EPA / NIEHS)

Assay: BSK_LPS_PGE2: BioMAP Diversity Plus: LPS Assay for Prostaglandin E2 (PGE2) Biomarker Activity (AID 2283082)
Settings: primary human HUVEC with PBMC; actives raise or lower the signal
Active and inactive are the calls of the source. Rule for the calls: active = hit-call score of the fitted dose curve at least 0.9, where 1 is the maximum; inactive = score below 0.9.
Outcomes: true (1) = active, false (0) = inactive

1) Oc1ccc(-c2ccccc2)cc1	false (0)
2) CCOC(=O)/C=C(C)/C=C/C[C@@H](C)CCCC(C)C	true (1)
3) CCN1CCC2(CC1)COc1cc3c(cc12)N(C(=O)c1ccc(-c2ccc(-c4nnc(C)o4)cc2C)cc1)CC3	false (0)
4) CC(C)(C)CC(C)(C)c1ccc(O)cc1	false (0)
5) C[C@@H]1C[C@@H]([C@H](O)CC2CC(=O)NC(=O)C2)C(=O)[C@@H](C)C1	true (1)
6) COC[C@H](C)N(C(=O)CCl)c1c(C)csc1C	false (0)
7) O=C(O)C(F)(F)C(F)(F)C(F)(F)C(F)(F)C(F)(F)C(F)(F)F	false (0)
8) CCCCCCCCC(=O)NCc1ccc(O)c(OC)c1	true (1)
9) CC12CC1(C)C(=O)N(c1cc(Cl)cc(Cl)c1)C2=O (stereo unspecified)	false (0)
10) CC(C)CCCCCCOC(=O)c1ccccc1C(=O)OCCCCCCC(C)C	false (0)
11) C=CC(=O)OCCCCCC(C)C	false (0)

* * *

Read-out: CYP2C8 (gene 1558)
Assay: LTEA_HepaRG_CYP2C8: Life Technologies and Expression Analysis (LTEA) Assay for CYP2C8 using HepaRG (AID 2283483)
Conditions: mRNA level, 48 h; actives raise or lower the signal
The source made the active and inactive calls. The calls were made as follows: active = hit-call score of the fitted dose curve at least 0.9, where 1 is the maximum; inactive = score below 0.9.
Outcomes: 1 (active), 0 (inactive)

1. CCC(=O)C(CC(C)N(C)C)(c1ccccc1)c1ccccc1 (configuration not stated)	0
2. Oc1cccc2cccnc12	0
3. CCOP(=S)(OCC)SCSP(=S)(OCC)OCC	1
4. CCCCCCCCc1ccc(O)cc1	0
5. O=C1C2(Cl)C3(Cl)C4(Cl)C(Cl)(Cl)C5(Cl)C3(Cl)C1(Cl)C5(Cl)C24Cl (configuration not stated)	1
6. C[C@]12CCC(=O)C[C@@H]1CC[C@@H]1[C@@H]2CC[C@]2(C)[C@@H](O)CC[C@@H]12	0
7. Cn1sc(Cl)cc1=O	0
8. CCOP(=S)(OCC)Oc1nc(Cl)c(Cl)cc1Cl	0
9. CC(C)(C)c1cc(O)ccc1O	0
10. CC12CC1(C)C(=O)N(c1cc(Cl)cc(Cl)c1)C2=O (configuration not stated)	0
11. CC(=O)[O][Hg][c]1ccccc1	1
12. CC(C)(C)CC(C)(C)c1ccc(O)cc1	0

* * *

Target: Hypoxia-inducible factor 1-alpha (Homo sapiens)
Assay: ATG_HIF1a_CIS: Attagene CIS-FACTORIAL HepG2 Assay for human Hypoxia Inducible Factor 1 (HIF1A) (AID 2282951)
Conditions: HepG2 Attagene cis-factorial HIF1a reporter transcription; actives raise or lower the signal
Activity calls are given as the source filed them. The calls were made as follows: active = hit-call score of the fitted dose curve at least 0.9, where 1 is the maximum; inactive = score below 0.9.
Outcomes: active, inactive

1) CCCCOCCOC(C)=O	inactive
2) CCC(C)c1cccc(C(C)CC)c1O (stereo not given)	inactive
3) CCCCCCCCSC(=O)Oc1cc(Cl)nnc1-c1ccccc1	inactive
4) CC(Br)C(=O)O (stereo not given)	inactive
5) CCOP(=S)(OCC)Oc1ccc(S(C)=O)cc1 (stereo not given)	inactive
6) COP(=S)(OC)Oc1c(Cl)cc(C)cc1Cl	inactive
7) N#Cc1ccccn1	inactive
8) CCC(=O)C(CC(C)N(C)C)(c1ccccc1)c1ccccc1 (stereo not given)	inactive
9) ClC1=C(Cl)[C@]2(Cl)[C@H]3[C@H]([C@H]4C=C[C@H]3C4)[C@@]1(Cl)C2(Cl)Cl	active
10) O=C/C=C/c1ccccc1	inactive
11) O=C1CCCN1	inactive
12) CC(C)OC(=O)Nc1ccccc1	inactive
13) Cc1ccc2ccccc2c1C	inactive
14) Fc1ccc(C2(Cn3cncn3)OC2c2ccccc2Cl)cc1 (stereo not given)	inactive
15) Oc1ccc(-c2ccccc2)cc1	inactive

* * *

Read-out: TIMP metallopeptidase inhibitor 1 (TIMP1), TIMP1 (gene 7076)
Experiment: BSK_hDFCGF_TIMP1: BioMAP Diversity Plus: hDFCGF Assay for TIMP metallopeptidase inhibitor 1 (TIMP1) Biomarker Activity (AID 2283062)
Settings: primary human foreskin fibroblasts; actives raise or lower the signal
Calls of active or inactive are those of the source. The calls were made as follows: active = hit-call score of the fitted dose curve at least 0.9, where 1 is the maximum; inactive = score below 0.9.
Outcomes: active, inactive

1) ClC(Cl)=C(Cl)C(Cl)=C(Cl)Cl	active
2) CC(=O)[O][Hg][c]1ccccc1	active
3) CCOP(=S)(OCC)SCCS(=O)(=O)CC	inactive
4) NC(=O)O	inactive
5) CCOC(=O)/C=C(C)/C=C/C[C@@H](C)CCCC(C)C	active
6) BrCCBr	inactive
7) C(=NC1CCCCC1)=NC1CCCCC1	active
8) CC1(C)Cc2cccc(O)c2O1	inactive
9) CCCCCCCCc1ccc(O)cc1	active
10) COP(=S)(OC)Oc1ccc(Sc2ccc(OP(=S)(OC)OC)cc2)cc1	inactive
11) ClC1=C(Cl)[C@]2(Cl)[C@H]3[C@H]([C@H]4C=C[C@H]3C4)[C@@]1(Cl)C2(Cl)Cl	inactive
12) NC(=S)Nc1ccccc1	inactive
13) COc1cc(OC)nc(NC(=O)NS(=O)(=O)c2ncccc2C(=O)N(C)C)n1	inactive
14) COP(=S)(OC)Oc1cc(Cl)c(Cl)cc1Cl	inactive
15) CCSC(C)CC1CC(=O)C(C(CC)=NOC/C=C/Cl)=C(O)C1 (centres undefined)	inactive
16) CCCCC(CC)CO[N+](=O)[O-] (centres undefined)	inactive
17) CCN1CCC2(CC1)COc1cc3c(cc12)N(C(=O)c1ccc(-c2ccc(-c4nnc(C)o4)cc2C)cc1)CC3	active
18) C[C@]12CCC(=O)C[C@@H]1CC[C@@H]1[C@@H]2CC[C@]2(C)[C@@H](O)CC[C@@H]12	inactive
19) CC(C)CCCCCCOC(=O)c1ccccc1C(=O)OCCCCCCC(C)C	inactive
20) Oc1c(I)cc(I)cc1I	inactive
21) CC(C)(C)CC(C)(C)c1ccc(O)cc1	active
22) COP(=S)(OC)Oc1c(Cl)cc(C)cc1Cl	inactive
23) O=C(Nc1ccc2[nH]ccc2c1)c1cc2cc(F)ccc2n1Cc1cccc(F)c1	active
24) O=C(O)C(F)(F)C(F)(F)C(F)(F)C(F)(F)C(F)(F)C(F)(F)F	inactive
25) Nc1ncc([N+](=O)[O-])s1	inactive
26) O=C(OC1CCCCC1)c1ccccc1C(=O)OC1CCCCC1	active
27) CC(=O)C(Cl)C(=O)N(C)C (centres undefined)	inactive
28) COC(=O)c1sccc1S(=O)(=O)NC(=O)Nc1nc(C)nc(OC)n1	inactive
29) C=CC(=O)OCCCCCC(C)C	inactive

* * *

Read-out: Cytochrome P450 (CYP2B6), CYP2B6 (gene 1555)
Assay: LTEA_HepaRG_CYP2B6: Life Technologies and Expression Analysis (LTEA) Assay for Cytochrome P450 (CYP2B6) using HepaRG (AID 2283481)
Details: mRNA level, 48 h; actives raise or lower the signal
Activity calls are given as the source filed them. How the source made its calls: active means hit-call score of the fitted dose curve at least 0.9, where 1 is the maximum; inactive means score below 0.9.
Outcomes: YES (active), NO (inactive)

1. CC12CC1(C)C(=O)N(c1cc(Cl)cc(Cl)c1)C2=O (stereo unspecified)	YES
2. O=C(O)C(F)(F)C(F)(F)C(F)(F)C(F)(F)C(F)(F)C(F)(F)C(F)(F)C(F)(F)C(F)(F)C(F)(F)F	YES
3. Oc1cccc2cccnc12	NO
4. O=c1[nH]c(=O)[nH]c(=O)[nH]1	NO
5. C=CC(=O)OCCCCCC(C)C	NO
6. CC(C)(c1ccccc1)c1ccc(O)c(C(C)(C)c2ccccc2)c1	YES
7. CC(C)(C)c1cc(O)ccc1O	NO
8. O=C(O)C(Cl)(Cl)Cl	NO
9. ClCC(Cl)CCl	YES
10. CCOP(=S)(OCC)Oc1nc(Cl)c(Cl)cc1Cl	YES
11. CC(=O)[O][Hg][c]1ccccc1	YES
12. C=C(C)C(=O)[O][Sn]([CH2]CCC)([CH2]CCC)[CH2]CCC	YES
13. CCN1CCC2(CC1)COc1cc3c(cc12)N(C(=O)c1ccc(-c2ccc(-c4nnc(C)o4)cc2C)cc1)CC3	YES
14. Cn1sc(Cl)cc1=O	NO
15. O=C(Nc1ccc2[nH]ccc2c1)c1cc2cc(F)ccc2n1Cc1cccc(F)c1	YES
16. Cc1ccccc1N	NO

* * *

Test: ATG_NF_kB_CIS: Attagene CIS-FACTORIAL HepG2 Assay for human Nuclear Factor Kappa B (NF-kB) (AID 2282991)
Conditions: HepG2 Attagene cis-factorial NF-kB reporter mRNA; actives raise or lower the signal
Activity calls are given as the source filed them. The calls were made as follows: active = hit-call score of the fitted dose curve at least 0.9, where 1 is the maximum; inactive = score below 0.9.
Outcomes: active, inactive

1) COP(=S)(OC)Oc1c(Cl)cc(C)cc1Cl	inactive
2) Cc1cc(Cl)ccc1O[C@H](C)C(=O)O	inactive
3) Oc1ccc(-c2ccccc2)cc1	inactive
4) Nc1ccc(Cl)cc1C(=O)c1ccccc1	inactive
5) Nc1ncc([N+](=O)[O-])s1	inactive
6) Cl/C=C\C[N+]12CN3CN(CN(C3)C1)C2	active
7) C=CC(=O)N(C)C	inactive
8) Nc1ccc(N=Nc2ccc(-c3ccc(N=Nc4c(S(=O)(=O)O)cc5cc(S(=O)(=O)O)c(N=Nc6ccccc6)c(O)c5c4N)cc3)cc2)c(N)c1	inactive
9) O=C1C(Cl)=C(Cl)C(=O)c2ccccc21	inactive
10) CCN(CC)C(=O)Cl	inactive
11) CCCCCCCCSC(=O)Oc1cc(Cl)nnc1-c1ccccc1	inactive
12) Clc1ccc(C2(Cn3cncn3)CC(Br)CO2)c(Cl)c1 (centres undefined)	inactive
13) C[C@H]1CCCC(=O)CCC/C=C/c2cc(O)cc(O)c2C(=O)O1	inactive
14) CC(C)c1cccc(C(C)C)c1O	inactive
15) CC(=[OH+])/C=C(/C)[O-].CC(=[OH+])/C=C(/C)[O-].CC(=[OH+])/C=C(/C)[O-].[Al]	inactive
16) CCSC(C)CC1CC(=O)C(C(CC)=NOC/C=C/Cl)=C(O)C1 (centres undefined)	inactive
17) O=C(OC1CCCCC1)c1ccccc1C(=O)OC1CCCCC1	inactive
18) O=[N+]([O-])c1ccc2c3c(cccc13)CC2	inactive
19) CCOP(OCC)OCC	inactive
20) CCOC(=O)Nc1cccc(OC(=O)Nc2ccccc2)c1	inactive
21) O=C(O)C(F)(F)C(F)(F)C(F)(F)C(F)(F)C(F)(F)C(F)(F)F	inactive
22) CC(C)(c1ccc(OCC2CO2)cc1)c1ccc(OCC2CO2)cc1 (centres undefined)	inactive
23) O=C(c1ccccc1)C(Cl)Cl	active
24) CC(C)OC(=O)Nc1ccccc1	inactive
25) ClC1=C(Cl)[C@]2(Cl)[C@@H]3[C@@H](Cl)[C@@H](Cl)C[C@@H]3[C@@]1(Cl)C2(Cl)Cl	inactive
26) COC[C@H](C)N(C(=O)CCl)c1c(C)csc1C	inactive
27) COS(=O)(=O)c1ccc(C)cc1	inactive
28) COc1ccccc1OC	inactive
29) Fc1ccc(C2(Cn3cncn3)OC2c2ccccc2Cl)cc1 (centres undefined)	inactive
30) COc1cc2c(cc1OC)[C@@]13CCN4CC5=CCO[C@H]6CC(=O)N2[C@H]1[C@H]6[C@H]5C[C@H]43	inactive
31) [O-][Cl+2]([O-])O	inactive
32) C=CC(=O)OCCCCCC(C)C	inactive
33) O=C1CCCN1	inactive
34) ClCCBr	inactive
35) CC(=O)c1cc(C(C)(C)C)cc2c1CCC2(C)C	active
36) Nc1cccc(Cl)c1	inactive
37) Cc1cc(=O)[nH]o1	inactive
38) CC(C)(C)CC(C)(C)c1ccc(O)cc1	inactive
39) COP(=S)(OC)Oc1cc(Cl)c(Cl)cc1Cl	inactive
40) O=C(NCO)NCO	inactive
41) COP(=O)(OC)OC	inactive
42) C=CCc1ccc(OC)cc1	inactive
43) NNC(=S)NN	inactive
44) COc1cc(-c2ccc(N)c(OC)c2)ccc1N	inactive
45) O=Cc1cccc(Oc2ccccc2)c1	inactive
46) CCOP(=S)(OCC)Oc1nc(Cl)c(Cl)cc1Cl	inactive
47) CNC	inactive
48) CC(Br)C(=O)O (centres undefined)	inactive
49) CNC(=O)O/N=C/C(C)(C)S(C)=O (centres undefined)	inactive
50) CCCCCCCCC(=O)NCc1ccc(O)c(OC)c1	inactive
51) Cn1sc(Cl)cc1=O	active
52) CCc1ccccc1C	inactive
53) OCc1ccco1	inactive
54) c1cc[c]([Hg][c]2ccccc2)cc1	inactive
55) NC(=S)Nc1ccccc1	inactive
56) C[C@]12CC[C@H](O)CC1=CC[C@@H]1[C@@H]2CC[C@]2(C)C(=O)CC[C@@H]12	inactive
57) BrCCBr	inactive
58) ClCc1cccnc1	inactive
59) CC1CN1P(=O)(N1CC1C)N1CC1C (centres undefined)	inactive
